# test.details: amyloid nucleation score (Sup35N fusion, yeast selection) (log enrichment); library NNK3; higher = more nucleation; inactive = no reads after selection;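 note: zero at mode of non-aggregating sequences after 7 days selection at 30°C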

>  <substance>
DSFSTDCVFYEIMCSEVRLA

>  <amyloid nucleation score>
inactive

$$$$
>  <substance>
RDYLYGNDMSNVKGYRRRWY

>  <amyloid nucleation score>
inactive

$$$$
>  <substance>
TCEWLSNYFKDLFIMVLSIS

>  <amyloid nucleation score>
inactive

$$$$
>  <substance>
GRYAEETRYRVFLLIVMTRR

>  <amyloid nucleation score>
inactive

$$$$
>  <substance>
NSDATIWYFHRCSRLYVAGM

>  <amyloid nucleation score>
inactive

$$$$
>  <substance>
HVFYPALI

>  <amyloid nucleation score>
inactive

$$$$
>  <substance>
FLRKFRLTLIYVTRASWLGG

>  <amyloid nucleation score>
inactive

$$$$
>  <substance>
FHQLGICKFKA

>  <amyloid nucleation score>
-0.387

$$$$
>  <substance>
GVRLNVDRAVKVARELFH

>  <amyloid nucleation score>
inactive

$$$$
>  <substance>
SSLSTNARVDLSMRR

>  <amyloid nucleation score>
inactive

$$$$
>  <substance>
VLYVRNLMLYGNLCKALLAF

>  <amyloid nucleation score>
inactive

$$$$
>  <substance>
YCFICVDSIAL

>  <amyloid nucleation score>
2.27

$$$$
>  <substance>
MNYRFVISMLWVEVRGFGRQ

>  <amyloid nucleation score>
-0.892

$$$$
>  <substance>
FQNDDVTS

>  <amyloid nucleation score>
inactive

$$$$
>  <substance>
TNYICCSFRFPWNHSYV

>  <amyloid nucleation score>
3.4

$$$$
>  <substance>
ITYSMLVVVQNLA

>  <amyloid nucleation score>
1.75

$$$$
>  <substance>
KVFNTL

>  <amyloid nucleation score>
inactive

$$$$
>  <substance>
TSLLGLRKHFLPHLIYMRNS

>  <amyloid nucleation score>
inactive

$$$$
>  <substance>
REWIGLSTYDSA

>  <amyloid nucleation score>
inactive

$$$$
>  <substance>
LVSMWMQASILLYCNGSNHW

>  <amyloid nucleation score>
1.61

$$$$
>  <substance>
RWFRTVGKFFGHIFS

>  <amyloid nucleation score>
0.039

$$$$
>  <substance>
SSHGSRGITVDT

>  <amyloid nucleation score>
inactive

$$$$
>  <substance>
RPFNHVDISYAKPLDNFWM

>  <amyloid nucleation score>
-0.582

$$$$
>  <substance>
RPPMDEICSNFRSRTLNQSK

>  <amyloid nucleation score>
inactive

$$$$
>  <substance>
QNVRLTMLLFRNKVYS

>  <amyloid nucleation score>
inactive

$$$$
>  <substance>
MGKTMILKLLY

>  <amyloid nucleation score>
inactive

$$$$
>  <substance>
YVWMVSYMFLDFLDSTLALP

>  <amyloid nucleation score>
inactive

$$$$
>  <substance>
PPRLTS

>  <amyloid nucleation score>
inactive

$$$$
>  <substance>
PECFVTGIRGTSCCRESVD

>  <amyloid nucleation score>
inactive

$$$$
>  <substance>
LVLQLGFKKSPLRVYRSSGN

>  <amyloid nucleation score>
inactive

$$$$
>  <substance>
HLRETCCRWDVLCVDSLLV

>  <amyloid nucleation score>
inactive

$$$$
>  <substance>
CVEAEDNFVLLKEGHAAWDV

>  <amyloid nucleation score>
inactive

$$$$
>  <substance>
QQRHMLS

>  <amyloid nucleation score>
0.294

$$$$
>  <substance>
TLSWLRPPPSRPLLFHEVSW

>  <amyloid nucleation score>
-0.246

$$$$
>  <substance>
GGENLTFLRSAFCSNWA

>  <amyloid nucleation score>
inactive

$$$$
>  <substance>
MIVSSYFYLVRIQYEFHAGW

>  <amyloid nucleation score>
0.172

$$$$
>  <substance>
AGVWWVCRRGVFFALMLM

>  <amyloid nucleation score>
inactive

$$$$
>  <substance>
HHLNSYFRISFI

>  <amyloid nucleation score>
inactive

$$$$
>  <substance>
ACRYDLSKKPNASWARAEG

>  <amyloid nucleation score>
-0.272

$$$$
>  <substance>
MLLFACQRLQLVALLGARML

>  <amyloid nucleation score>
inactive

$$$$
>  <substance>
MVKSKSTLTCNSIEPCIVIF

>  <amyloid nucleation score>
inactive

$$$$
>  <substance>
LCPIAMCCSG

>  <amyloid nucleation score>
inactive

$$$$
>  <substance>
SLTALDNWCRIFAMPVLSWK

>  <amyloid nucleation score>
inactive

$$$$
>  <substance>
CLFYIRS

>  <amyloid nucleation score>
inactive

$$$$
>  <substance>
SCVRHPIECLKWMTLTGEVV

>  <amyloid nucleation score>
inactive

$$$$
>  <substance>
VSLFYKCSYNGVYNNRVLAP

>  <amyloid nucleation score>
1.43

$$$$
>  <substance>
MYRNECSMLSSIHLTVPSGN

>  <amyloid nucleation score>
inactive

$$$$
>  <substance>
MYSHRRGRKLRLLESFYNLS

>  <amyloid nucleation score>
inactive

$$$$
>  <substance>
MCRTMLSPLMR

>  <amyloid nucleation score>
inactive

$$$$
>  <substance>
HPTFHSHDRGR

>  <amyloid nucleation score>
inactive

$$$$
>  <substance>
FRFSMSL

>  <amyloid nucleation score>
inactive

$$$$
>  <substance>
SILRVGKERRSGYSSGEEY

>  <amyloid nucleation score>
inactive

$$$$
>  <substance>
HSVGWHFPLCFSTQMTLVRS

>  <amyloid nucleation score>
inactive

$$$$
>  <substance>
LQNLNGLIVKSCL

>  <amyloid nucleation score>
inactive

$$$$
>  <substance>
ESSRRYEVCCLMW

>  <amyloid nucleation score>
inactive

$$$$
>  <substance>
DLTNEMQVCVNV

>  <amyloid nucleation score>
-0.17

$$$$
>  <substance>
MLMAPSYEYT

>  <amyloid nucleation score>
-0.209

$$$$
>  <substance>
RAGVVVFIRRLRRLMGTLGA

>  <amyloid nucleation score>
-0.005

$$$$
>  <substance>
IKFIERWYQFTYVHCLQVMG

>  <amyloid nucleation score>
-0.247

$$$$
>  <substance>
SHECNLCFNVL

>  <amyloid nucleation score>
inactive

$$$$
>  <substance>
STWLSNWYY

>  <amyloid nucleation score>
-0.759

$$$$
>  <substance>
GTTLHYLSRREYGFTGRILF

>  <amyloid nucleation score>
inactive

$$$$
>  <substance>
TTEFKIDR

>  <amyloid nucleation score>
inactive

$$$$
>  <substance>
GHIWFIAEVNSICYLLFLVS

>  <amyloid nucleation score>
inactive

$$$$
>  <substance>
NFCFLCSWCIL

>  <amyloid nucleation score>
2.56

$$$$
>  <substance>
ILQKSDVSII

>  <amyloid nucleation score>
inactive

$$$$
>  <substance>
LNSYQDYSRGVLLKRKALLY

>  <amyloid nucleation score>
inactive

$$$$
>  <substance>
TYFLSDWWRDRSNWLWFLAH

>  <amyloid nucleation score>
inactive

$$$$
>  <substance>
YGMWHHYFGDLTLSSRLNHV

>  <amyloid nucleation score>
inactive

$$$$
>  <substance>
ARFFVVGLWCVSIKIVPFFD

>  <amyloid nucleation score>
inactive

$$$$
>  <substance>
DDRVVPVLYQTCSAVRR

>  <amyloid nucleation score>
inactive

$$$$
>  <substance>
EVSFDNLRGWH

>  <amyloid nucleation score>
inactive

$$$$
>  <substance>
EWVALNSSYLWYCPVM

>  <amyloid nucleation score>
inactive

$$$$
>  <substance>
ACSYVGTKMLPGANLRDKPW

>  <amyloid nucleation score>
-0.387

$$$$

* * *

Measured amyloid nucleation score, listed per entry.
# test.details: amyloid nucleation score (Sup35N fusion, yeast selection) (log enrichment); library NNK1; higher = more nucleation; inactive = no reads after selection

>  <substance>
MGGTLRNRRGTKVRSELGGD

>  <amyloid nucleation score>
-0.817

$$$$
>  <substance>
QYAIFRLSKTWIIHSMDKNA

>  <amyloid nucleation score>
0.269

$$$$
>  <substance>
MAVLGALNRSGNMGVGLFYN

>  <amyloid nucleation score>
-0.647

$$$$
>  <substance>
FSTGNPWVD

>  <amyloid nucleation score>
-0.342

$$$$
>  <substance>
FDVMKFYIYLGYSVVPVM

>  <amyloid nucleation score>
-1.09

$$$$
>  <substance>
VQETYGYLYRNNIDRGGHIN

>  <amyloid nucleation score>
2.07

$$$$
>  <substance>
LCDYKRPCMTMYNHHELLII

>  <amyloid nucleation score>
0.005

$$$$
>  <substance>
YIDEIY

>  <amyloid nucleation score>
-0.759

$$$$
>  <substance>
LYSSLSYTKFMCAG

>  <amyloid nucleation score>
-0.51

$$$$
>  <substance>
VIRYSIKSCFLYIKTYQGYM

>  <amyloid nucleation score>
-0.907

$$$$
>  <substance>
VGHYDNSYGRNGLLTTR

>  <amyloid nucleation score>
-0.179

$$$$
>  <substance>
LWERGKCHEACVVPAKKEGT

>  <amyloid nucleation score>
0.039

$$$$
>  <substance>
YLIDSSTPDFR

>  <amyloid nucleation score>
0.314

$$$$
>  <substance>
CQPLLSMYLVHYTA

>  <amyloid nucleation score>
0.116

$$$$
>  <substance>
YMVYILSVCDLRFLWTRSGG

>  <amyloid nucleation score>
-0.053

$$$$
>  <substance>
QLRYKIVMHRQSEHKPSLLN

>  <amyloid nucleation score>
-0.855

$$$$
>  <substance>
FGLADITWKLPPQGSTWRLT

>  <amyloid nucleation score>
-0.108

$$$$
>  <substance>
KSRAGMNKACTQLYPLV

>  <amyloid nucleation score>
-0.215

$$$$
>  <substance>
VSGFGSTYLLCVN

>  <amyloid nucleation score>
0.589

$$$$
>  <substance>
QYLFSGLEEMPIVTVLS

>  <amyloid nucleation score>
-0.393

$$$$
>  <substance>
CNFMVSYRISFMLRLIQYYV

>  <amyloid nucleation score>
-0.938

$$$$
>  <substance>
FIVLAYCLSFWVAIYPEVHM

>  <amyloid nucleation score>
0.581

$$$$
>  <substance>
FIHSRE

>  <amyloid nucleation score>
0.366

$$$$
>  <substance>
LKQTPMLGDMGWGHRCLGKT

>  <amyloid nucleation score>
-0.262

$$$$
>  <substance>
YILACAKVTEDPVSVSMKCA

>  <amyloid nucleation score>
-0.278

$$$$
>  <substance>
VVLCSVLTFDPSAEHLCTLV

>  <amyloid nucleation score>
6.44

$$$$
>  <substance>
LRMKANYVTSAFNRCVLLLG

>  <amyloid nucleation score>
0.425

$$$$
>  <substance>
SHLCTMIGTCFL

>  <amyloid nucleation score>
1.98

$$$$
>  <substance>
TWQLNIYMEKFSGVEKSSTV

>  <amyloid nucleation score>
7.84

$$$$
>  <substance>
RMIIYNKYRCNSYLTNMGFG

>  <amyloid nucleation score>
2

$$$$
>  <substance>
YGGLEVSLGALQNVGVKPYT

>  <amyloid nucleation score>
-0.189

$$$$
>  <substance>
QVTNRMRLRLMYR

>  <amyloid nucleation score>
0.699

$$$$
>  <substance>
FWGCTQMSRLDATDVSL

>  <amyloid nucleation score>
0.867

$$$$
>  <substance>
CTLSYCWWMAQYPDISRLIT

>  <amyloid nucleation score>
-0.362

$$$$
>  <substance>
IMYCLFGHLFLLRIGGFIMG

>  <amyloid nucleation score>
0.101

$$$$
>  <substance>
APAAIINFLDPHICARMAMF

>  <amyloid nucleation score>
-0.513

$$$$
>  <substance>
RLGRNVNEHRVPLVLACVED

>  <amyloid nucleation score>
0.964

$$$$
>  <substance>
LPSGLRCRTSRMDVAKLAK

>  <amyloid nucleation score>
0.441

$$$$
>  <substance>
IYFQVSRLMSVRRAMKSPKP

>  <amyloid nucleation score>
-0.666

$$$$
>  <substance>
DIPYVFLLFLQECDNVFLCH

>  <amyloid nucleation score>
2.54

$$$$
>  <substance>
FNVHNWAQRTVEHGETLFRD

>  <amyloid nucleation score>
1.57

$$$$
>  <substance>
GLCMEYTVWWVWSWITLRVD

>  <amyloid nucleation score>
-0.294

$$$$
>  <substance>
PLVVGRVCEGYRRWCWFGRR

>  <amyloid nucleation score>
-0.369

$$$$
>  <substance>
GVVFPWSVLMFSCSSCLAVP

>  <amyloid nucleation score>
0.605

$$$$
>  <substance>
LWSFIGTGLITNMCISREFK

>  <amyloid nucleation score>
0.743

$$$$
>  <substance>
QARSGPTPLTTWRTRQVTLG

>  <amyloid nucleation score>
-0.178

$$$$
>  <substance>
YDKFFGVSIDDR

>  <amyloid nucleation score>
0.038

$$$$
>  <substance>
ASYMYAPSIFYSERLKWNPS

>  <amyloid nucleation score>
0.226

$$$$
>  <substance>
TLGVMEGRNSDSLTVCRVGS

>  <amyloid nucleation score>
1.06

$$$$
>  <substance>
FIFSAVGRNN

>  <amyloid nucleation score>
-0.411

$$$$
>  <substance>
IWIMWGYRSLDTMLHS

>  <amyloid nucleation score>
0.047

$$$$
>  <substance>
DWMLISE

>  <amyloid nucleation score>
-0.084

$$$$
>  <substance>
DGIRSWENSMVIYGI

>  <amyloid nucleation score>
-0.091

$$$$
>  <substance>
RCDRTGQRRALDRGSCFLVE

>  <amyloid nucleation score>
-0.46

$$$$
>  <substance>
TLSKYQS

>  <amyloid nucleation score>
0.221

$$$$
>  <substance>
FMVLDQFIE

>  <amyloid nucleation score>
0.383

$$$$
>  <substance>
FLKLPFTKSSWSF

>  <amyloid nucleation score>
-0.317

$$$$
>  <substance>
TLTVRRCSCQVQWGLRMFHL

>  <amyloid nucleation score>
-0.653

$$$$
>  <substance>
SHPSKRLRTSKNVCACATNP

>  <amyloid nucleation score>
-0.12

$$$$
>  <substance>
QIIPTRFGWFSNRGCVLGSY

>  <amyloid nucleation score>
1.08

$$$$
>  <substance>
LPWYSSQMRADVSTPERWFL

>  <amyloid nucleation score>
-0.224

$$$$
>  <substance>
RVWYGFYCELITTPRFASGV

>  <amyloid nucleation score>
-0.322

$$$$
>  <substance>
CLVYSTYIDGQTLAKTF

>  <amyloid nucleation score>
-0.761

$$$$
>  <substance>
LYSKLSALEFMQLAIQSHLD

>  <amyloid nucleation score>
1.96

$$$$
>  <substance>
HVVFVMDVRYPKIAVVYLLA

>  <amyloid nucleation score>
1.1

$$$$
>  <substance>
IRYLWHVLMVRFEESRWSLY

>  <amyloid nucleation score>
-0.061

$$$$
>  <substance>
FSRFLYEYGCGELVATFLPW

>  <amyloid nucleation score>
0.517

$$$$
